METHOD DESCRIPTION: Example 7: food effect on pharmacokinetics of Compound 1 in healthy Japanese males
Assay type: in vivo
CONDITION SUMMARY: male, human, plasma, po, 400 mg, Fasted, single oral dose 400 mg; Mean ± SD (n = 6)
PARAMETER MEASURED: Tmax (h)

{"COMPOUND": "COc1cc2c(cc1Cc1cccc(Cl)c1F)c(=O)c(C(=O)O)cn2[C@H](CO)C(C)C [Compound 1]", "PARAMETER MEASURED": "Tmax", "MEASUREMENT": 2.5}

====

METHOD DESCRIPTION: Example 3: pharmacokinetics of Compound 1 and RTV at a range of RTV doses
CONDITION SUMMARY: both, human, plasma, oral, AUCtau, Compound 1 in plasma; Compound 1 125 mg + 100 mg RTV QD; mean (CV %)
PARAMETER MEASURED: AUC (ng·h/mL)

{"ENTRY SMILES": "COc1cc2c(cc1Cc1cccc(Cl)c1F)c(=O)c(C(=O)O)cn2[C@H](CO)C(C)C", "PARAMETER MEASURED": "AUC", "UNIT ABBREVIATION": "ng·h/mL", "MEASUREMENT": 20300}

====

METHOD DESCRIPTION: Example 3: pharmacokinetics of Compound 1 and RTV at a range of RTV doses
CONDITION SUMMARY: both, human, plasma, oral, Half-life, RTV in plasma; Compound 1 125 mg + 100 mg RTV QD; mean (CV %)
PARAMETER MEASURED: half-life (h)

{"MOLECULE": "CC(C)c1nc(CN(C)C(=O)N[C@H](C(=O)N[C@@H](Cc2ccccc2)C[C@H](O)[C@H](Cc2ccccc2)NC(=O)OCc2cncs2)C(C)C)cs1 [Ritonavir, reference compound]", "MEASUREMENT": 6.34}

====

METHOD DESCRIPTION: Example 3: pharmacokinetics of Compound 1 and RTV at a range of RTV doses
CONDITION SUMMARY: both, human, plasma, oral, AUCtau, Compound 1 in plasma; Compound 1 125 mg + 200 mg RTV QD; mean (CV %)
PARAMETER MEASURED: AUC (ng·h/mL)

{"ENTRY SMILES": "COc1cc2c(cc1Cc1cccc(Cl)c1F)c(=O)c(C(=O)O)cn2[C@H](CO)C(C)C", "PARAMETER MEASURED": "AUC", "MEASUREMENT": 20600}

====

METHOD DESCRIPTION: Example 1: pharmacokinetics of Compound 1 alone and with RTV in healthy subjects
Format: in vivo, human
CONDITION SUMMARY: both sexes, human, plasma, oral, Compound 1 in plasma; Day 20, Compound 1 100 mg + RTV 100 mg twice daily, steady state; median
Excerpt: The study was an open-label, fixed-sequence, crossover, pharmacokinetic study with 12 subjects. The subjects were healthy males and non-pregnant, nonlactating females between 18 and 45 years of age, inclusive. The duration of the study was 20 days, with Period 1 of Days 1 to 10 and Period 2 of days 11 to 20. Follow-up contact was on day 27.
PARAMETER MEASURED: half-life

{"COMPOUND": "COc1cc2c(cc1Cc1cccc(Cl)c1F)c(=O)c(C(=O)O)cn2[C@H](CO)C(C)C [Compound 1]", "PARAMETER MEASURED": "half-life", "MEASUREMENT": "9.5 h"}
